These measurements were taken from patent EP4582451A1.

target: T1, mouse thyroid-stimulating hormone receptor (TSHR) (mouse, UniProt P47750 22-764); assay: flow cytometry (FACS), 293 cells overexpressing mouse TSHR
T1 construct: whole, on cells; Overexpressed on 293 cells; also called mouse TSHR; murine TSHR
T1 sequence (P47750 22-764): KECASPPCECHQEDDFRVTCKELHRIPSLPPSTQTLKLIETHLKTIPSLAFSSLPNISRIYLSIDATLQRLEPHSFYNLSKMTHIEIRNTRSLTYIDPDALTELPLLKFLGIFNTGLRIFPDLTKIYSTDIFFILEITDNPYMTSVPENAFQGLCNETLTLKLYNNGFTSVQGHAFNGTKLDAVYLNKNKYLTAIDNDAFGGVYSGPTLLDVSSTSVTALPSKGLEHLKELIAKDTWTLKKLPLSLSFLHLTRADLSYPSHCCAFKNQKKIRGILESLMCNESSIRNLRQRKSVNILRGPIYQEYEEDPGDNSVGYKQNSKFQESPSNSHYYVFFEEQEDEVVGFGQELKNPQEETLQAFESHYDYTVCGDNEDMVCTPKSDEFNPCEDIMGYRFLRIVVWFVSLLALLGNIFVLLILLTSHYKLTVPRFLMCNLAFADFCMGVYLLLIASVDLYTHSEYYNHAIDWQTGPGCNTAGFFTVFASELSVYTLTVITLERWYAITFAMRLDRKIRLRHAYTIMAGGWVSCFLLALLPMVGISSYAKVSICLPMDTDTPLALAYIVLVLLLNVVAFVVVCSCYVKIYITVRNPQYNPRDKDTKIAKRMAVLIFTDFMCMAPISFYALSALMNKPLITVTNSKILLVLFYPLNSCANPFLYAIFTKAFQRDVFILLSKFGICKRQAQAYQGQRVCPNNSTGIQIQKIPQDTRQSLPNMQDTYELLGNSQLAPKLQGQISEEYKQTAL
Listed here are binders together with their documented Maximum binding signal.

binder	Maximum binding signal
humanized antibody cAb12-VH1-QG&S-VL3 (antibody, human IgG4 S228P, kappa, V domains shown, Humanized from mAb012) VH: QVQLVQSGAEVKKPGASVKVSCKASGYTFTDYYMNWVRQAPGQGLEWMGVINPYQGESSNNQKFKGRVTMTRDTSTSTVYMELSSLRSEDTAVYYCARSYGYGYYFDYWGQGTTVTVSS VL: AIQLTQSPSSLSASVGDRVTITCSATSSVTYMHWYQQKPGKAPKRWIYDTSKLTSGVPPRFSGSGSGTDYTLTISSLQPEDFATYYCQQWSTYPYTFGGGTKLEIKR	98800
humanized antibody cAb21-VH1-VL3 (antibody, human IgG4 S228P, kappa, V domains shown, Humanized from mAb021) VH: QVQLVQSGAEVKKPGASVKVSCKASGYTFSNYWMQWVRQAPGQGLEWMGEIDPADSYTAYSQKFKGRVTMTRDTSTSTVYMELSSLRSEDTAVYYCARRNLLRSGDYWGQGTLVTVSS VL: AIQLTQSPSSLSASVGDRVTITCSASSGITYIHWYQQKPGKAPKRWIYDSSKLASGVPARFSGSGSGTDYTLTISSLQPEDFATYYCQQWSGNPPTFGQGTKLEIKR	185000
humanized antibody cAb12-VH3-QG&S-VL3 (antibody, human IgG4 S228P, kappa, V domains shown, Humanized from mAb012) VH: QVQLVQSGAEVKKPGASVKVSCKASGYTFTDYYMNWVKQAPGQGLEWIGVINPYQGESSNNQKFKGRATMTVDKSTSTVYMELSSLRSEDTAVYYCARSYGYGYYFDYWGQGTTVTVSS VL: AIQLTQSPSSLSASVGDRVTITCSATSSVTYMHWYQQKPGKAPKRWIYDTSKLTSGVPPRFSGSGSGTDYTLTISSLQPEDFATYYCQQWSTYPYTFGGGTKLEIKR	135000
humanized antibody cAb21-VH2-VL2 (antibody, human IgG4 S228P, kappa, V domains shown, Humanized from mAb021) VH: QVQLVQSGAEVKKPGASVKVSCKASGYTFSNYWMQWVRQAPGQGLEWIGEIDPADSYTAYSQKFKGRATMTVDTSTSTVYMELSSLRSEDTAVYYCARRNLLRSGDYWGQGTLVTVSS VL: AIQLTQSPSSLSASVGDRVTITCSASSGITYIHWYQQKPGKAPKRWIYDSSKLASGVPSRFSGSGSGTDYTLTISSLQPEDFATYYCQQWSGNPPTFGQGTKLEIKR	175000
